Biological target: PI3Kβ (Homo sapiens (Human), UniProt P42338)
Sequence (P42338 whole entry, canonical isoform): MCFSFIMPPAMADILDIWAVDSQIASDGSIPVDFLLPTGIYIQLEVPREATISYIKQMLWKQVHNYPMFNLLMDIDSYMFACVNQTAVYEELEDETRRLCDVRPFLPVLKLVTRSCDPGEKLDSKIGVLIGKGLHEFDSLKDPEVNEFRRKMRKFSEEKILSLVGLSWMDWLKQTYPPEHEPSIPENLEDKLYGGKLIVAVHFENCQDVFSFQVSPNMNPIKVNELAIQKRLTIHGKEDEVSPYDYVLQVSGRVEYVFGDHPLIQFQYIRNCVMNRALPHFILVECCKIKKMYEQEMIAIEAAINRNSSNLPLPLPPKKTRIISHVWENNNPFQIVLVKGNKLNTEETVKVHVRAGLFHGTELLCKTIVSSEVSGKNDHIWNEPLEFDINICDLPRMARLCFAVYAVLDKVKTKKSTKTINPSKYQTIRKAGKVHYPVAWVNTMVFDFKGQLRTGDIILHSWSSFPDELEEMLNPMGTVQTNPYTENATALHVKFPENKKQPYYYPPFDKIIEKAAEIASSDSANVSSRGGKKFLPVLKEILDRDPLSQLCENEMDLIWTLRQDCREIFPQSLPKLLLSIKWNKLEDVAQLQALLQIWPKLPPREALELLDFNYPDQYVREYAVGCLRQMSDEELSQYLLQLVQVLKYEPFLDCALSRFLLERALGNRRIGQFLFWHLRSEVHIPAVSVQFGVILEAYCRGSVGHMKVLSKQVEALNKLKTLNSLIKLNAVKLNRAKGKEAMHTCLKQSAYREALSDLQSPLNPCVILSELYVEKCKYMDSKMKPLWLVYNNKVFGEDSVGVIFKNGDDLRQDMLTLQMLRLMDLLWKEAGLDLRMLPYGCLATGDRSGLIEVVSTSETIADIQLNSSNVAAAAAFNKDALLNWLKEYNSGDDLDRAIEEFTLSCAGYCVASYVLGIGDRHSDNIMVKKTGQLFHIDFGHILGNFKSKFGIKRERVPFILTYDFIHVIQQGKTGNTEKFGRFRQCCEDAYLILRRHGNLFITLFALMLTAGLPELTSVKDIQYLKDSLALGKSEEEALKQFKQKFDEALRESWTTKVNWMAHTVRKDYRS
Sequence (P27986 whole entry partner, canonical isoform): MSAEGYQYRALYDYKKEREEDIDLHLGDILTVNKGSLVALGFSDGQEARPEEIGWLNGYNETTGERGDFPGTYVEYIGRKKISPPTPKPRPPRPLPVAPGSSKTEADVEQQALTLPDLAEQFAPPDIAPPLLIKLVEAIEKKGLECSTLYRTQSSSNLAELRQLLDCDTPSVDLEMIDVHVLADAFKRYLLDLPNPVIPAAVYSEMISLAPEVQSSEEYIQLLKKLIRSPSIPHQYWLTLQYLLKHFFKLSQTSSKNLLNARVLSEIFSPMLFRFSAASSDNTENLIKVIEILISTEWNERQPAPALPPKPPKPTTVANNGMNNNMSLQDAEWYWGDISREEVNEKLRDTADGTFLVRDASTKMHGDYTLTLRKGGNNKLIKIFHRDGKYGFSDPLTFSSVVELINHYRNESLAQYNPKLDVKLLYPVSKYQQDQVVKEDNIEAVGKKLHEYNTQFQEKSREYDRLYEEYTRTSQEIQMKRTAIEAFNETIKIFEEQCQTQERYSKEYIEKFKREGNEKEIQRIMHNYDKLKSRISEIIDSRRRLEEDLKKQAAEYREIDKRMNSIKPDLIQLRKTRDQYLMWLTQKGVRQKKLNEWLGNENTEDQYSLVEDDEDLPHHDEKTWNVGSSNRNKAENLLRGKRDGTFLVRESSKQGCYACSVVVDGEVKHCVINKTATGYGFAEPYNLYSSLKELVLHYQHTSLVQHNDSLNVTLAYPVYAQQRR
Assay: PI3K isoform TR-FRET enzymatic assay (PI3Kβ)
Conditions: 2× Km ATP, 30 minutes at 25° C.
I'd be grateful if you could share measured IC50 for these entries.
Field format: number, assumed nM, no unit text.

Lab note: need IC50 with PI3Kβ (Homo sapiens (Human), UniProt P42338) for entry Fc1ccc(F)c2c(-n3c(C4CC4)nc4c(-c5nccs5)cc(N5CCOCC5)cc43)ccnc12 [Example 241] , please look it up.
27

Input Fc1cccc2c(-n3c(CC4CC4)nc4c(-c5ncco5)cc(N5CCOCC5)cc43)ccnc12 [Example 225]
18

Query CCCc1nc2c(-c3nnc[nH]3)cc(N3CCOCC3)cc2n1-c1ccnc2c(Cl)cc(F)cc12 [Example 33] next
10

Now the compound Clc1cccc2c(-n3c(-c4cnco4)nc4c(-c5nnc[nH]5)cc(N5CCOCC5)cc43)ccnc12 [Example 112]
17
